All values here come from patent US20180037631A1.

target: EGFR on the surface of human tumour cells (A431, H292) (human, UniProt P00533 25-1210); assay: cell-based or functional assay
measuredMetric: % inhibition of EGFR phosphorylation at 100 nM binder, cell-based assay

[[record]]
binder = "E41 (designed binder) 10Fn3 domain: MGVSDVPRDLEVVAATPTSLLISWTPPNSGHNYYRITYGETGGNSPVQEFTVPHDLTTATISGLKPGVDYTITVYAVTDYYNPNTYEYTYQFTPISINYRTEIDKPSQ"
reading = "75.2%"

[[record]]
binder = "E44 (designed binder) 10Fn3 domain: MGVSDVPRDLEVVAATPTSLLISWDSEGPSYQYYRITYGETGGNSPVQEFTVPYAVYTATISGLKPGVDYTITVYAVTDYYNPRTHELFFQQYPISINYRTEIDKPSQ"
reading = "83.3%"

[[record]]
binder = "E43 (designed binder) 10Fn3 domain: MGVSDVPRDLEVVAATPTSLLISWSGGFMRYQYYRITYGETGGNSPVQEFTVPGQVYTATISGLKPGVDYTITVYAVTDYKPHADGPHTYHESPISINYRTEIDKPSQ"
reading = "75%"

[[record]]
binder = "E33 (designed binder) 10Fn3 domain: MGVSDVPRDLEVVAATPTSLLISWASRKEVYQYYRITYGETGGNSPVQEFTVPGWLNTATISGLKPGVDYTITVYAVTDYMHVEYAEYPISINYRTEIDKPSQ"
reading = "75.8%"

[[record]]
binder = "E39 (designed binder) 10Fn3 domain: MGVSDVPRDLEVVAATPTSLLISWQVSAFRYQYYRITYGETGGNSPVQEFTVPGMVSTATISGLKPGVDYTITVYAVTDYKPHADGPHTYSEYPISINYRTEIDKPSQ"
reading = "76.7%"

[[record]]
binder = "E42 (designed binder) 10Fn3 domain: MGVSDVPRDLEVVAATPTSLLISWVVPNWMYQYYRITYGETGGNSPVQEFTVPGMLETATISGLKPGVDYTITVYAVTDYYNPTTYEYTYFTYPISINYRTEIDKPSQ"
reading = "77.3%"

